As a worked illustration, we turn to pKd data collected for D(1B) dopamine receptor (Homo sapiens).
pKd field: float, defined as -log10 of concentration (mol/L).

compound: C[C@@H](NC(=O)/N=C(\N)NCCCc1ncn[nH]1)c1ccccc1
numeric_readout: 9.62
//
compound: CCCCCNC(=O)/N=C(\N)NCCCc1nnc(N)s1.O=C(O)C(F)(F)F.O=C(O)C(F)(F)F
numeric_readout: 9.62

Please look at the following compound next.
Input line: Can you look up pKd on D(1B) dopamine receptor (Homo sapiens) for CCCCCNC(=O)/N=C(\N)NCCCc1sc(N)nc1C ?
Output line: 9.62

###

Ki reference
molecular target: UniProt:Q9H3N8
Sequence (Q9H3N8 whole entry): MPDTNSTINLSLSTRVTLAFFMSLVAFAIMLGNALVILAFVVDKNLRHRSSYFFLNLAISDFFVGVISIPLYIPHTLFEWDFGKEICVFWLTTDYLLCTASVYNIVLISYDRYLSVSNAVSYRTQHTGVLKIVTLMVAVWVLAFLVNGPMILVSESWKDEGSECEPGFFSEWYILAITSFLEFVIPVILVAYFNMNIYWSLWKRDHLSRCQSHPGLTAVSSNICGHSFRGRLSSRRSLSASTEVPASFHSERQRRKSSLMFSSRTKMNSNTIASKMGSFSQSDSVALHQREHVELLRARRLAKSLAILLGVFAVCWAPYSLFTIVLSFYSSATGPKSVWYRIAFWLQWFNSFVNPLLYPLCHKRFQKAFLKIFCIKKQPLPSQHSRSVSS
Dear colleague, please return just the value in µM, with no unit written.

molecule: CCCCCNC(=O)/N=C(\N)Nc1cccc(-c2sc(N)nc2C)c1.O=C(O)C(F)(F)F.O=C(O)C(F)(F)F
unit_text: µM
Ki: 7.41

Input line: // returns reported Ki for input Cc1nc(N)oc1CCCN/C(N)=N/C(=O)NCC(C)C1CCCCC1.O=C(O)C(F)(F)F.O=C(O)C(F)(F)F (centres undefined)
Output line: 7.59
